Measured viability at 48 h, 1 µM of individual entries
# test_description: Cytotoxicity test (MTT), U937
# Type: cell-based
# test_conditions: human, U937 cells (monocytic blood cancer-derived cell line); U937, 48 h, 1 μM; read-out: Cell viability (% of control)
Express it in %; write the number only.

Before answering, review these 2 worked examples.
CCCCOC(=O)Nc1nc(C)c(O)c(C)c1C    84.6
Cc1nc(NC(=O)Nc2ccc(Cl)cc2)c(C)c(C)c1O    81

Switching to the query record.
# input compound: "Cc1nc(NS(=O)(=O)c2cccc3ccccc23)c(C)c(C)c1O" ; wanted: its viability at 48 h, 1 µM 92.6
